test system: NCI-H226; experiment: NCI tumour cell line growth inhibition, 48 h
The source made the active and inactive calls. Rule as the data show it: active = GI50 up to about 1.1 µM and inactive = higher.
Pick one and only one: 1.0 = active, 0.0 = inactive

Some entries whose results are on file:
Call for entry "Cc1c(-c2coc(-c3ccc(Cl)cc3)n2)c(=O)n(-c2ccccc2)n1C" : 0.0

Hi, sorry to bother you, what did the test record for C[C@]12CC/C(=N\OCCN3CCCCC3)C=C1CCC1C2CC[C@@]2(C)C1CC[C@]2(C)O (stereo partly specified) ? 0.0

Hey, what did the test say about COc1ccc2c(c1)C1c3ccccc3CCN1CCC2 (stereo unspecified) ? 0.0

So what was the verdict on "Brc1ccc2nc(-c3cccs3)nc(N3CCN(c4ccccc4)CC3)c2c1" in this test? 0.0

Status in this test for "C[C@]12CC[C@H](O)CC1=CC[C@@H]1[C@@H]2CC[C@]2(C)C(=O)/C(=C/c3ccc([N+](=O)[O-])cc3)C[C@@H]12" ? 0.0

Others:
Could you please tell me the result logged for "Cc1cc(C)c2c(n1)S(=O)(=O)N(CCCN1CCN(c3cccc(C(F)(F)F)c3)CC1)C(C(=O)c1ccccc1)=C2O" in this assay? 1.0

Per the assay record, what outcome was assigned to "O=c1cnn(CCOCP(=O)(O)O)c(=O)[nH]1" ? 0.0

I'd appreciate the recorded outcome for CC(C)[Si](OC12CCC(CC1O)CC2CO)(C(C)C)C(C)C (stereo unspecified) from this test. 0.0

Recorded call for "O=C1c2cccc([N+](=O)[O-])c2C(=O)c2nccnc21" ? 0.0

# lookup: test call for CCOC(=O)CCC(NC(=O)Cc1ccc(Oc2nc3ccccc3nc2-c2cccs2)cc1)C(=O)OCC (stereo unspecified) 0.0

---

test system: TK-10; experiment: NCI tumour cell line growth inhibition, 48 h
Activity calls are given as the source filed them. Cut-off read from the data, not from the text of the source: active = GI50 up to about 1.1 µM and inactive = higher.
Write down one outcome, taken from true (active), false (inactive)

I would be grateful if you could indicate the recorded call for "O=C(NCCc1ccc(F)cc1)c1cc(/C=C/c2cc(O)ccc2O)ccc1O" . false

# lookup: test call for "Cc1nc2ccccc2c(=O)n1/N=C(\N=N\c1cc(Cl)ccc1Cl)c1ccc(N(C)C)cc1" false

---

test system: SNB-75; experiment: NCI tumour cell line growth inhibition, 48 h
The source made the active and inactive calls. Rule as the data show it: active = GI50 up to about 1.1 µM and inactive = higher.
Pick one and only one: True for active, False for inactive

Lab log entry: "CN(C)CCNc1ccc2nnn3c4ccc(Cl)cc4c(=O)c1c23" — outcome as called in the assay? False

I'd appreciate the recorded outcome for "CN1C(=O)C(C)(C)NS1(=O)=O" from this test. False

Further cases:
Per the records of this test, what outcome belongs to "FC(F)(F)c1cc(Cl)cnc1N/N=C(/c1ccccc1)c1ccccn1" ? True

Field: outcome | Entry: "CN(C)C(=S)/N=c1\ss/c(=N\S(=O)(=O)c2ccccc2)n1-c1ccccc1" False

# lookup: test call for C(CCC[Te][Te]CCCCCCOC1CCCCO1)CCOC1CCCCO1 (stereo not given) False

Test call for this compound, please: CN1C(C(=O)Nc2ccccn2)=C(O)c2ccccc2S1(=O)=O [PIROXICAM] False

Could you please tell me the result logged for "CCCCI(O)OS(=O)(=O)c1ccc(C)cc1" in this assay? False

# lookup: test call for COC1CCCCN1C(=O)c1ccccc1 (stereo not given) False

What was the test verdict on "COc1c(Cl)ccc(Cl)c1C(=O)NNC(=O)c1c(Cl)c(Cl)c(Cl)c(Cl)c1-c1nc2cc(C(=O)c3ccccc3)ccc2[nH]1" ? False

Which result was noted for this compound in the test: CC[N+]1(C)CCC(O)(c2ccc(Cl)c(Cl)c2)C(C(=O)c2ccc(Cl)c(Cl)c2)C1 (stereo not given) False

---

Collected GI50 values appear next to each entry.
tested on: CCRF-CEM; experiment: NCI tumour cell line growth inhibition, 48 h
Activity calls are given as the source filed them. Cut-off read from the data, not from the text of the source: active = GI50 up to about 1.1 µM and inactive = higher.

Use the examples below as a reference point.
Returns the measured GI50 for the input molecule. Input: "O=C1N[C@H]2c3c(Cl)sc(Cl)c3[C@@H](O)[C@H]2O1" > 100 µM (inactive)

State the recorded GI50 for this entry: "CN1CCC(O)(C(C)(C)C)CC1" > 100 µM (inactive)

Consider the molecule COc1ccc(C2c3c(-c4ccccc4)nn(-c4ccccc4)c3Oc3ncn(N)c(=N)c32)cc1OC (stereo not given) and give its measured GI50. 2.56 µM (inactive)

Entry under review: "Cn1c2c3c(F)c(F)ccc3nc-2cc2ccccc21" . Reported GI50? 1.91 µM (inactive)

What value of GI50 has been reported for the following molecule? "CC(=O)OCC1=C(COC(C)=O)C(=O)c2c(O)ccc(O)c2C1=O" 2.45 µM (inactive)

I have this molecule here, "CN1C(C(=O)Nc2ccccn2)=C(O)c2ccccc2S1(=O)=O" , and I need its recorded GI50. > 100 µM (inactive)

More entries:
Endpoint output: GI50 of "CCOC(=O)C1=CN2C(=N[C@H]3CCCC[C@@H]32)NC1=O" . Value? > 100 µM (inactive)

Using the record for "CN(CCC(=O)O)C1=Nc2ccc(Cl)cc2C(c2ccccc2)=[N+]([O-])C1" , report its GI50. > 100 µM (inactive)

I have this molecule here, "COc1ccc2[nH]c(Cl)c(/C=C3/C(=O)Nc4cc(C)c(OC)cc43)c2c1" , and I need its recorded GI50. 3.43 µM (inactive)

Consider the molecule shown here: COc1ccc2c(c1)C1c3ccccc3CCN1CCC2 (stereo not given) What is its recorded GI50? 38.5 µM (inactive)

---

test system: DMS-114; experiment: NCI tumour cell line growth inhibition, 48 h
Calls of active or inactive are those of the source. No stated cut-off is given here; in the data, active = GI50 up to about 1.1 µM and inactive = higher.
Answer with one of the outcomes given here: Yes for active, No for inactive

See these solved cases before continuing.
Any idea what this test logged for "O=C1C(c2ccccc2)=C(c2ccccc2)C(c2ccc(Sc3ccc(C4=C(c5ccccc5)C(=O)C(c5ccccc5)=C4c4ccccc4)cc3)cc2)=C1c1ccccc1" ? No

Per the records of this test, what outcome belongs to O=C(CC1(O)C(=O)Nc2ccccc21)c1cccc(O)c1 (configuration not stated) ? No

Field: outcome | Entry: "CCCCCCCCCCCCCCCC/C(C(=O)OC)=C(/O)C(=O)OCC" No

Hi team, can someone confirm the assay call for CCC12C=CCN3CCC4(C(=C(C(=O)OC)[C@@H]1O)Nc1ccccc14)C32 (some centres not stated) ? No

Any idea what this test logged for "Cc1nc2ccccc2c(=O)n1/N=C(\N=N\c1cc(Cl)ccc1Cl)c1ccc(N(C)C)cc1" ? No

For this compound, state the assay outcome: CCN(CC)C(c1ccc(N(C)C)cc1)C(c1ccc(N(C)C)cc1)N(CC)CC (configuration not stated) No

Others:
Dear colleague, could you share the recorded outcome for "Oc1ccc2occ3c2c1CCC3" when you have a moment? No

Record request — test call for "CN(Cc1ccccc1)C(=O)c1ccccc1C(=O)O" No

Hi, sorry to bother you, what did the test record for "O=C1CSc2sc(=S)sc2S1" ? No

Call for entry "C/C(N)=[N+](/C)[O-]" : No

What was the test verdict on "CCOC(=O)N1CCc2cc(OC)c(OC)c3c2c1cc1cc(OC)c(OC)cc13" ? No

Could you kindly confirm the outcome this assay logged for "COc1ccccc1/C=C(\NC(=O)c1ccccc1)c1nc2ccccc2[nH]1" ? No

Field: outcome | Entry: "COc1ccc(C(=O)N/N=C/c2c(C)n(C)n(-c3ccccc3)c2=O)cc1" No

---

test system: RXF 393; assay: NCI tumour cell line growth inhibition, 48 h
Calls of active or inactive are those of the source. Rule as the data show it: active = GI50 up to about 1.1 µM and inactive = higher.
GI50 by entry:

// worked examples, GI50 included
Value lookup for GI50; key = COc1cccc(C(=O)C(O)c2cccc(OC)c2OC)c1OC (stereo unspecified) > 100 µM (inactive)

Entry COc1ccc(C2=C(Cl)c3cc(OC)c(OC)cc3C2Cl)cc1 (stereo unspecified) : reported GI50 = ? 14.5 µM (inactive)

What value of measured GI50 is listed for "CCN(CC)c1c(N(CC)CC)c(=O)c1=O" ? 11.3 µM (inactive)

Param item = O=C(Nc1ccccc1)N1N=C(c2ccccc2)C1c1ccccc1 (stereo unspecified) ; retrieve measured GI50. 17.3 µM (inactive)

***
Look at this molecule and give its reported GI50. "Cn1c2c3c(F)c(F)ccc3nc-2cc2ccccc21" 4.05 µM (inactive)

Which GI50 is reported for this molecule? COc1ccc(C2c3c(-c4ccccc4)nn(-c4ccccc4)c3Oc3ncn(N)c(=N)c32)cc1OC (stereo unspecified) 1.84 µM (inactive)

---

system: MDA-N; assay: NCI tumour cell line growth inhibition, 48 h
Activity calls are given as the source filed them. Rule as the data show it: active = GI50 up to about 1.1 µM and inactive = higher.
Catalogue of GI50 readings, one per entry.

What GI50 value was documented for this compound, "Cc1c(C2=C(Br)C(=O)N(C)C2=O)c(=O)n(C)c(=O)n1C" ? 28.1 µM (inactive)

Please look up its GI50: CCOC(=O)CNC(=O)C(CSCC1C(=O)Nc2ccccc21)NC(=O)CCC(N)C(=O)OCC (stereo not given) 1.79 µM (inactive)

Please give the measured GI50 for this compound: "c1ccc2c(c1)CCN(C1=NCCO1)C2" > 10 µM (inactive)

Requested read-out: GI50. Entry: C[C@]12CC/C(=N\OCCN3CCCCC3)C=C1CCC1C2CC[C@@]2(C)C1CC[C@]2(C)O (stereo not given in full) 3.32 µM (inactive)

Turning now to a further record.
What value of GI50 has been reported for the following compound? "O=C1c2cc3ncsc3cc2C(=O)c2c(O)ccc(O)c21" > 100 µM (inactive)
